Tested on: HaCat
Test: Cytotoxic Profiling of Annotated Libraries Using Quantitative High-Throughput Screening (AID 1296008); further: on the % scale 0 is the no-effect control and ±100 the full control effect; nearly all actives have a fitted effect of over 60% in size
Conditions: Five cell lines viability, CellTiter-Glo ATP luminescence, 48-72 h; active compounds read low
Results filed as inconclusive are left out.
metric: max response (%)
Numbers only, in %.

CC(C)(N)c1ncc(-c2ccc(OC(F)(F)F)cc2)[nH]1; -18.6
CCCCC1CCN(CCCN2C(=O)CCc3ccccc32)CC1; -2.1
Cc1cnc(-c2ccccc2C(C)C)nc1NCc1ccc(-n2ccnn2)cc1; -29.3
C/C=C(\C)C(=O)OC1C(C)C2(O)C(C=C(CO)CC3(O)C(=O)C(C)=CC32)C2C(C)(C)C12OC(C)=O (stereo not drawn); -5.6
NS(=O)(=O)Nc1ncnc(OCCOc2ncc(Br)cn2)c1-c1ccc(Br)cc1; -23.8

Please report max response for every entry that follows.
1. O=C(Nc1ccccc1C(=O)NC1CCCCNC1=O)c1cc2ccccc2s1 (stereo not drawn)
2. CCNc1nc(Nc2cc(F)c(C(=O)N3CCOCC3)cc2OC)ncc1C(F)(F)F
3. CC(=O)O[C@H]1C[C@@](O)(C(C)C)[C@@H]2[C@@H](OC(=O)c3ccc(O)cc3)CC(C)=CC[C@@]12C
4. CC(C)(CO)c1cc2cc(NC(=O)C3(c4ccc5c(c4)OC(F)(F)O5)CC3)c(F)cc2n1CC(O)CO (stereo not drawn)

Ans.
1. 4.7
2. 1.43
3. -1.16
4. -17.2

Please report max response for every entry that follows.
1. COc1ccc(C#Cc2ccc(C(=O)N3CCC[C@@H](O)C3)c(F)c2)cc1
2. CN1CCN(S(=O)(=O)c2ccc(-c3cnc(N)c(C(=O)Nc4cccnc4)n3)cc2)CC1
3. C/C(=C/C=C\C=C\Cc1cnco1)[C@@H](O)C(C)(C)C(N)=O
4. CCC(C)/C=C(C)/C=C/C1=CC2=CC(=O)C3(C)OC(C)(O)C(C(=O)OC)C3C2=CO1 (stereo not drawn)
5. CC[C@@H]1C[C@]1(NC(=O)[C@@H]1C[C@@H]2CN1C(=O)[C@H](C(C)(C)C)NC(=O)OCC(C)(C)CCCCc1cccc3c1CN(C3)C(=O)O2)C(=O)NS(=O)(=O)C1CC1

Ans.
-33.7
-21.1
-5.26
4.73
-6.71

Please report max response for every entry that follows.
1. CCc1c[nH]c2ncnc(N3CC[C@](N)(CNC(=O)c4ccc(F)cc4F)C3)c12
2. C=C1/C(=C/C=C2\CCC[C@]3(C)[C@@H]([C@H](C)CC[C@@H](O)C(C)(C)O)CC[C@@H]23)C[C@@H](O)C[C@@H]1O
3. O=C(Nc1ccc(CN2CCOCC2)cc1)c1ccc(-c2cccc(Cl)c2)o1
4. C=C[C@@]12COC(=O)C(=C)[C@@H]1[C@@H](O)[C@H](C(=C)C(=O)OC)[C@@H](O)C2
5. COC(CCc1ccc(O)cc1)CC(=O)CCc1ccc(O)cc1 (stereo not drawn)

Ans.
[-5.86, -0.344, -23.4, -29, -18.6]

Please report max response for every entry that follows.
1. COc1ccc(C(=O)Nc2c(Cl)cncc2Cl)cc1OC1CCCC1
2. C/C(=C\CO[C@@H]1O[C@H](CO[C@H]2OC[C@](O)(CO)[C@H]2O)[C@@H](O)[C@H](O)[C@H]1O)C(C)(C)O
3. C#CCNCc1cc2cc(OCc3ccccc3)ccc2[nH]1
4. COc1c2c(nc3occc13)C(CC=C(C)C)(OC)C(O)CC2 (stereo not drawn)

Ans.
1. -24.5
2. -2.99
3. -12.3
4. -1.05
